Assay comment: Rat pharmacokinetics: IV infusion 1 mg/kg, then PO 5 mg/kg; blood and urine by LC-MS/MS
Format: in vivo, Male Wistar Han rats
Conditions: male, Wistar Han, whole blood, oral bioavailability, ratio of dose-normalised AUC PO (5 mg/kg) and IV infusion (1 mg/kg)
Measurement label: bioavailability

Here are 2 molecules together with their reported answers.
# Molecule, Assay result
rows = [
    ("Cc1cc(-c2ccc(C(F)(F)F)c(F)c2)ccc1[C@@H](O)[C@H]1O[C@H](CO)[C@@H](O)[C@H](O)[C@@H]1O [Example 5]", "10 to 30%"),
    ("Cc1cc(-c2cc(F)c(C)c(F)c2)ccc1[C@@H](O)[C@H]1O[C@H](CO)[C@@H](O)[C@H](O)[C@@H]1O [Example 1]", "10 to 30%"),
]

Kindly review the next molecule as well.
Query: I would be grateful if you could share the reported bioavailability for C=Cc1c(F)cc(-c2ccc([C@@H](O)[C@H]3O[C@H](CO)[C@@H](O)[C@H](O)[C@@H]3O)c(C)c2)cc1F [Example 4] .
Response: 10 to 30%
